# Test system: Rhipicephalus microplus
# protocol-notes: Cattle - efficacy against one-host tick
# Format: in vivo
# test-parameters: 1 mg/kg topical (Compound 4: spray solution; others: DMA 92%/DEET 8% pour-on)
property: duration of efficacy (last Day with efficacy ≥80 percent) (days)
State the answer as a number, implicitly in days.

compound: O=C(Nc1ccc(F)cc1F)c1cc(NC(=O)[C@H]2[C@H](c3ccc(F)c(Cl)c3)C2(Cl)Cl)ccc1Cl
test-system: Rhipicephalus microplus
numeric-readout: 47
//
compound: O=C(Nc1ccc(F)cc1)c1cc(NC(=O)[C@H]2[C@H](c3cc(Cl)cc(Cl)c3)C2(Cl)Cl)ccc1F
test-system: Rhipicephalus microplus
numeric-readout: 47
//
compound: O=C(Nc1ncc(F)cc1F)c1cc(NC(=O)[C@H]2[C@H](c3cc(Cl)cc(Cl)c3)C2(Cl)Cl)ccc1Cl
test-system: Rhipicephalus microplus
numeric-readout: 63

Looking up O=C(Nc1ccc(F)cc1)c1cc(NC(=O)[C@H]2[C@H](c3cc(Cl)cc(Cl)c3)C2(Cl)Cl)ccc1F (racemic) , I found its duration of efficacy (last Day with efficacy ≥80 percent) recorded as 58

* * *

# Test system: juvenile soft ticks (Ornithodoros moubata)
# protocol-notes: Guinea pig - efficacy against argaside tick
# Type: in vivo
# test-parameters: 5 mg/kg subcutaneous, after 14 days
property: activity against tick nymphs (≥80% inhibition, killed+damaged)

molecule: CN(C(=O)c1cc(NC(=O)[C@H]2[C@H](c3cc(Cl)cc(Cl)c3)C2(Cl)Cl)ccc1Cl)c1ccc(F)cc1 [Compound 51]
test-system: juvenile soft ticks (Ornithodoros moubata)
result: activity

molecule: O=C(Nc1ccc(F)cc1)c1cc(NC(=O)[C@H]2[C@H](c3cc(Cl)cc(Cl)c3)C2(Cl)Cl)ccc1F (racemic) [Compound 4]
test-system: juvenile soft ticks (Ornithodoros moubata)
result: activity

molecule: O=C(Nc1ncc(F)cc1F)c1cc(NC(=O)C2C(c3cc(Cl)c(Cl)c(Cl)c3)C2(Cl)Cl)ccc1Cl (stereo not shown) [Compound 470]
test-system: juvenile soft ticks (Ornithodoros moubata)
result: activity

molecule: O=C(Nc1ccc(F)cc1F)c1cc(NC(=O)[C@H]2[C@H](c3cc(Cl)cc(Cl)c3)C2(Cl)Cl)ccc1F [Compound 447]
test-system: juvenile soft ticks (Ornithodoros moubata)
result: activity

* * *

Documented effective to control bed bugs across a set of molecules
# Tested on: bed bugs (Cimex lectularius)
# protocol-notes: Guinea pig - efficacy against bed bug
# Type: in vivo
# test-parameters: 5 mg/kg, at least until Day 10, both administration routes (oral, subcutaneous)
State the answer as a number, implicitly in %.

molecule: O=C(Nc1ccc(F)cc1)c1cc(NC(=O)[C@H]2[C@H](c3cc(Cl)cc(Cl)c3)C2(Cl)Cl)ccc1F (racemic) [Compound 4]
property: effective to control bed bugs
units: %
numeric-readout: 100
--
molecule: O=C(Nc1ncc(F)cc1F)c1cc(NC(=O)[C@H]2[C@H](c3cc(Cl)cc(Cl)c3)C2(Cl)Cl)ccc1Cl [Compound 453]
property: effective to control bed bugs
units: %
numeric-readout: 100
--
molecule: O=C(Nc1ncc(F)cc1F)c1cc(NC(=O)C2C(c3cc(Cl)c(F)c(Cl)c3)C2(Cl)Cl)ccc1Cl (stereo not drawn) [Compound 469]
property: effective to control bed bugs
units: %
numeric-readout: 100
--
molecule: O=C(Nc1ncc(F)cc1F)c1cc(NC(=O)[C@H]2[C@H](c3ccc(Cl)c(Cl)c3)C2(Cl)Cl)ccc1Cl [Compound 86]
property: effective to control bed bugs
units: %
numeric-readout: 100
--
molecule: O=C(Nc1cnc(F)cc1F)c1cc(NC(=O)[C@H]2[C@H](c3cc(Cl)c(Cl)c(Cl)c3)C2(Cl)Cl)ccc1Cl [Compound 466]
property: effective to control bed bugs
units: %
numeric-readout: 100

Simply: O=C(Nc1ccc(F)cc1F)c1cc(NC(=O)[C@H]2[C@H](c3cc(F)c(F)c(F)c3)C2(Cl)Cl)ccc1Cl [Compound 451] , bed bugs (Cimex lectularius), effective to control bed bugs = 100

* * *

# Tested on: Rhipicephalus appendiculatus
# protocol-notes: Cattle - efficacy against multi-host ticks (Rhipicephalus appendiculatus)
# Assay type: in vivo
# test-parameters: 5 mg/kg subcutaneous, re-infested after 21 days
property: efficacy ≥80 percent against Rhipicephalus appendiculatus

record-smiles: O=C(Nc1ncc(F)cc1F)c1cc(NC(=O)[C@H]2[C@H](c3cc(Cl)cc(Cl)c3)C2(Cl)Cl)ccc1Cl
result: prophylactic efficacy
//
record-smiles: O=C(Nc1ccc(F)cc1F)c1cc(NC(=O)[C@H]2[C@H](c3ccc(F)c(Cl)c3)C2(Cl)Cl)ccc1Cl
result: prophylactic efficacy
//
record-smiles: O=C(Nc1ccc(F)cc1F)c1cc(NC(=O)[C@H]2[C@H](c3cc(Cl)cc(Cl)c3)C2(Cl)Cl)ccc1F
result: prophylactic efficacy
//
record-smiles: O=C(Nc1ccc(F)cc1)c1cc(NC(=O)[C@H]2[C@H](c3cc(Cl)cc(Cl)c3)C2(Cl)Cl)ccc1F
result: prophylactic efficacy

* * *

# Tested on: Rhipicephalus appendiculatus
# protocol-notes: Cattle - efficacy against multi-host ticks (Rhipicephalus appendiculatus)
# Assay type: in vivo
# test-parameters: 5 mg/kg topical pour-on, re-infested after 14 days
property: efficacy ≥80 percent against Rhipicephalus appendiculatus

record-smiles: O=C(Nc1ncc(F)cc1F)c1cc(NC(=O)[C@H]2[C@H](c3cc(Cl)cc(Cl)c3)C2(Cl)Cl)ccc1Cl
result: prophylactic efficacy

record-smiles: O=C(Nc1ccc(F)cc1)c1cc(NC(=O)[C@H]2[C@H](c3cc(Cl)cc(Cl)c3)C2(Cl)Cl)ccc1F
result: prophylactic efficacy

record-smiles: O=C(Nc1ccc(F)cc1F)c1cc(NC(=O)[C@H]2[C@H](c3ccc(F)c(Cl)c3)C2(Cl)Cl)ccc1Cl
result: prophylactic efficacy

record-smiles: O=C(Nc1ccc(F)cc1F)c1cc(NC(=O)[C@H]2[C@H](c3cc(Cl)cc(Cl)c3)C2(Cl)Cl)ccc1F
result: prophylactic efficacy

* * *

Documented inhibition in vivo at 5 mg/kg across a set of compounds
# System: Lepeophtheirus salmonis
# protocol-notes: Salmon - in vivo efficacy against sea lice using gavage administration
# test-parameters: po, 168 h, read-out: therapeutic efficacy against (pre-)adult sea lice (% reduction vs control), salmon, 5 mg/kg once by gavage, day -28 infestation, counted day 7
State the answer as a number, implicitly in %.

// worked examples, inhibition in vivo at 5 mg/kg included
record-smiles: O=C(Nc1c(F)ccnc1F)c1cc(NC(=O)[C@H]2[C@H](c3cc(Cl)cc(Cl)c3)C2(Cl)Cl)ccc1Cl
units: %
numeric-readout: 80
//
record-smiles: O=C(Nc1ncc(F)cn1)c1cc(NC(=O)[C@H]2[C@H](c3cc(Cl)cc(Cl)c3)C2(Cl)Cl)ccc1Cl
units: %
numeric-readout: 100

Shifting focus to the compound that follows.
Looking up O=C(Nc1ncc(F)cc1F)c1cc(NC(=O)[C@H]2[C@H](c3cc(Cl)cc(Cl)c3)C2(Cl)Cl)ccc1Cl , I found its inhibition in vivo at 5 mg/kg recorded as 100

* * *

# Test system: bed bugs (Cimex lectularius)
# protocol-notes: Guinea pig - efficacy against bed bug
# Type: in vivo
# test-parameters: 5 mg/kg subcutaneous, after 17 days
property: activity against bed bugs (≥80% inhibition, killed+damaged)

// worked examples, activity against bed bugs (≥80% inhibition, killed+damaged) included
molecule: CN(C(=O)c1cc(NC(=O)[C@H]2[C@H](c3cc(Cl)cc(Cl)c3)C2(Cl)Cl)ccc1Cl)c1ccc(F)cc1 [Compound 51]
result: activity
//
molecule: O=C(Nc1ccc(F)cc1)c1cc(NC(=O)[C@H]2[C@H](c3cc(Cl)cc(Cl)c3)C2(Cl)Cl)ccc1F (racemic) [Compound 4]
result: activity
//
molecule: O=C(Nc1ncc(F)cc1F)c1cc(NC(=O)C2C(c3cc(Cl)cc(C(F)(F)F)c3)C2(Cl)Cl)ccc1Cl (centres unmarked) [Compound 475]
result: activity
//
molecule: O=C(Nc1ncc(F)cc1F)c1cc(NC(=O)C2C(c3cc(Cl)c(Cl)c(Cl)c3)C2(Cl)Cl)ccc1Cl (centres unmarked) [Compound 470]
result: activity
//
molecule: O=C(Nc1ncc(F)cc1F)c1cc(NC(=O)C2C(c3cc(Cl)c(F)c(Cl)c3)C2(Cl)Cl)ccc1Cl (centres unmarked) [Compound 469]
result: activity
//
molecule: O=C(Nc1ncc(F)cc1F)c1cc(NC(=O)C2C(c3cc(C(F)(F)F)cc(C(F)(F)F)c3)C2(Cl)Cl)ccc1Cl (centres unmarked) [Compound 471]
result: activity
//
molecule: O=C(Nc1cnc(F)cc1F)c1cc(NC(=O)[C@H]2[C@H](c3cc(Cl)c(Cl)c(Cl)c3)C2(Cl)Cl)ccc1Cl [Compound 466]
result: activity

Shifting focus to the molecule that follows.
Simply: O=C(Nc1ccc(F)cc1)c1cc(NC(=O)[C@H]2[C@H](c3cc(Cl)cc(Cl)c3)C2(Cl)Cl)ccc1F [Compound 446] , bed bugs (Cimex lectularius), activity against bed bugs (≥80% inhibition, killed+damaged) = activity

* * *

# Test system: juvenile soft ticks (Ornithodoros moubata)
# protocol-notes: Guinea pig - efficacy against argaside tick
# Assay type: in vivo
# test-parameters: 5 mg/kg subcutaneous, after 10 days
property: activity against tick nymphs (≥80% inhibition, killed+damaged)

compound: O=C(Nc1ccc(F)cc1)c1cc(NC(=O)[C@H]2[C@H](c3cc(Cl)cc(Cl)c3)C2(Cl)Cl)ccc1F [Compound 446]
result: activity
--
compound: O=C(Nc1ncc(F)cc1F)c1cc(NC(=O)C2C(c3cc(Cl)c(F)c(Cl)c3)C2(Cl)Cl)ccc1Cl (stereo not drawn) [Compound 469]
result: activity
--
compound: O=C(Nc1ccc(F)cc1)c1cc(NC(=O)[C@H]2[C@H](c3cc(Cl)cc(Cl)c3)C2(Cl)Cl)ccc1F (racemic) [Compound 4]
result: activity

Taken from patent US20240315993A1.
